Test: Human HepG2 cell viability assay in 384 well format
Type: toxicity, cell-based
Set-up: dose 125 nL, time 70.5 hour; concentration not given beside the values
Settings: HepG2 cells, read-out: Inhibition
Please respond with reported cytotoxicity at 70.5 h for every item in the list.
Answers are plain numbers, in %.

Past entries and their recorded results:
{"compound": "CN(c1ccc(C(=O)NCCCN2CCOCC2)c(Cl)c1)S(C)(=O)=O", "cytotoxicity at 70.5 h / %": -8.19}
{"compound": "Cc1cc2n(n1)CC(CNC1CCN(C3CC3)CC1)CN2 (configuration not stated)", "cytotoxicity at 70.5 h / %": -4.14}
{"compound": "Cc1cc(N(C)C)nc(C2COCCN2Cc2nccn2C)n1 (configuration not stated)", "cytotoxicity at 70.5 h / %": -6.31}
{"compound": "CC(C)n1cc(C(=O)N2Cc3ccccc3OC3(CCOCC3)C2)cn1", "cytotoxicity at 70.5 h / %": 23.6}
{"compound": "CC(C)c1nnc(CN2CCCc3ccc(S(N)(=O)=O)cc32)o1", "cytotoxicity at 70.5 h / %": -0.377}

Look up cytotoxicity at 70.5 h for the entries below, preserving their order.
1. O=C1CC2(CCN(C(=O)c3ccccn3)CC2)Oc2c(Br)cc(Br)cc21
2. Fc1ccc(N2CCOC3(COCCN(c4ncccn4)C3)C2)cc1 (configuration not stated)

1. 1.74
2. -6.83

Look up cytotoxicity at 70.5 h for the entries below, preserving their order.
1. O=S1(=O)CCC(N(Cc2nc(-c3ccccn3)no2)Cc2cccs2)C1 (configuration not stated)
2. COc1cc(C2(C(=O)NC3CCN(C4CC4)CC3)CC2)ccc1C
3. CCC(C(=O)NCc1nc(C)cc(C(F)(F)F)n1)n1cccn1 (configuration not stated)
4. CCN(CC)Cc1nc2c(o1)CN(C(=O)c1ccncc1F)C2
5. CN1CCOC(C(=O)Nc2nnc(Cc3ccc(F)cc3)[nH]2)C1 (configuration not stated)
6. Cc1c(C(=O)O)cnn1-c1ccc(-c2nc(C(C)C)no2)cn1

1. -4.77
2. -4.2
3. -11.3
4. -4.3
5. -7.94
6. -15.1

Look up cytotoxicity at 70.5 h for the entries below, preserving their order.
1. Cc1nc(-c2ccccc2)n(CC(=O)NC(C)C)n1
2. O=C1CCN(C(=O)C2(c3ccc(F)cc3)CCCCC2)CCN1
3. CC(=O)c1c[nH]c(C(=O)N2CCN(C(C(N)=O)c3ccccc3)CC2)c1 (configuration not stated)
4. c1coc(CN2Cc3nccn3CC(Cn3cncn3)C2)c1 (configuration not stated)
5. O=C(NC1CCN(c2ccccc2Br)C1)c1c[nH]nn1 (configuration not stated)
6. Cc1ccccc1C(C(=O)NCc1nc(-c2ncccn2)no1)N(C)C (configuration not stated)
7. CC(C)=CCn1ncc(N2CCCCC2)cc1=O
8. O=C(c1cc(Cl)c[nH]1)N(CCCO)Cc1cccnc1

-1.29
-8.46
47.9
1.12
-6.49
-6.36
-3.13
-8.59

Look up cytotoxicity at 70.5 h for the entries below, preserving their order.
1. CSCc1cccc(S(=O)(=O)NCCO)c1
2. COc1cc(CN2CC(=O)N(c3ccc(C)cc3)CC2C)cc(OC)c1 (configuration not stated)
3. CN1CCOCC2(CCCN(C(=O)c3ccc(-n4cccc4)cc3)C2)C1 (configuration not stated)
4. CCc1nc(CN2CCCC(NCc3nc(C)c(C)o3)C2)no1 (configuration not stated)
5. C=Cc1cccc(CN(Cc2cnn(C)c2)C2CC2)c1
6. CC(C)n1cc(CN2CCCN(C(=O)c3ccoc3)CC2)cn1

1. 0.997
2. -12
3. 9.26
4. -10.5
5. -9.54
6. 27.6
